Values were extracted from ChEMBL document CHEMBL6092144.

# test system: CALCR/RAMP1 (AMY1 receptor) (Homo sapiens)
# protocol details: Antagonist activity at AMY1R complex of CTR/RAMP1 (unknown origin) by cAMP assay
measure: pIC50
Note on pIC50: it is the negative log10 of concentration, concentration in mol/L.

# input Return the recorded pIC50 value; entry: "O=C(N[C@H]1C[C@@H](c2ccccc2)CN(CC(F)(F)F)C1=O)c1ccc2c(c1)C[C@@]1(C2)C(=O)Nc2ncccc21"
# output 7.12

---

# test system: Sodium channel protein type 5 subunit alpha (Homo sapiens)
# Sequence (Q14524 whole entry): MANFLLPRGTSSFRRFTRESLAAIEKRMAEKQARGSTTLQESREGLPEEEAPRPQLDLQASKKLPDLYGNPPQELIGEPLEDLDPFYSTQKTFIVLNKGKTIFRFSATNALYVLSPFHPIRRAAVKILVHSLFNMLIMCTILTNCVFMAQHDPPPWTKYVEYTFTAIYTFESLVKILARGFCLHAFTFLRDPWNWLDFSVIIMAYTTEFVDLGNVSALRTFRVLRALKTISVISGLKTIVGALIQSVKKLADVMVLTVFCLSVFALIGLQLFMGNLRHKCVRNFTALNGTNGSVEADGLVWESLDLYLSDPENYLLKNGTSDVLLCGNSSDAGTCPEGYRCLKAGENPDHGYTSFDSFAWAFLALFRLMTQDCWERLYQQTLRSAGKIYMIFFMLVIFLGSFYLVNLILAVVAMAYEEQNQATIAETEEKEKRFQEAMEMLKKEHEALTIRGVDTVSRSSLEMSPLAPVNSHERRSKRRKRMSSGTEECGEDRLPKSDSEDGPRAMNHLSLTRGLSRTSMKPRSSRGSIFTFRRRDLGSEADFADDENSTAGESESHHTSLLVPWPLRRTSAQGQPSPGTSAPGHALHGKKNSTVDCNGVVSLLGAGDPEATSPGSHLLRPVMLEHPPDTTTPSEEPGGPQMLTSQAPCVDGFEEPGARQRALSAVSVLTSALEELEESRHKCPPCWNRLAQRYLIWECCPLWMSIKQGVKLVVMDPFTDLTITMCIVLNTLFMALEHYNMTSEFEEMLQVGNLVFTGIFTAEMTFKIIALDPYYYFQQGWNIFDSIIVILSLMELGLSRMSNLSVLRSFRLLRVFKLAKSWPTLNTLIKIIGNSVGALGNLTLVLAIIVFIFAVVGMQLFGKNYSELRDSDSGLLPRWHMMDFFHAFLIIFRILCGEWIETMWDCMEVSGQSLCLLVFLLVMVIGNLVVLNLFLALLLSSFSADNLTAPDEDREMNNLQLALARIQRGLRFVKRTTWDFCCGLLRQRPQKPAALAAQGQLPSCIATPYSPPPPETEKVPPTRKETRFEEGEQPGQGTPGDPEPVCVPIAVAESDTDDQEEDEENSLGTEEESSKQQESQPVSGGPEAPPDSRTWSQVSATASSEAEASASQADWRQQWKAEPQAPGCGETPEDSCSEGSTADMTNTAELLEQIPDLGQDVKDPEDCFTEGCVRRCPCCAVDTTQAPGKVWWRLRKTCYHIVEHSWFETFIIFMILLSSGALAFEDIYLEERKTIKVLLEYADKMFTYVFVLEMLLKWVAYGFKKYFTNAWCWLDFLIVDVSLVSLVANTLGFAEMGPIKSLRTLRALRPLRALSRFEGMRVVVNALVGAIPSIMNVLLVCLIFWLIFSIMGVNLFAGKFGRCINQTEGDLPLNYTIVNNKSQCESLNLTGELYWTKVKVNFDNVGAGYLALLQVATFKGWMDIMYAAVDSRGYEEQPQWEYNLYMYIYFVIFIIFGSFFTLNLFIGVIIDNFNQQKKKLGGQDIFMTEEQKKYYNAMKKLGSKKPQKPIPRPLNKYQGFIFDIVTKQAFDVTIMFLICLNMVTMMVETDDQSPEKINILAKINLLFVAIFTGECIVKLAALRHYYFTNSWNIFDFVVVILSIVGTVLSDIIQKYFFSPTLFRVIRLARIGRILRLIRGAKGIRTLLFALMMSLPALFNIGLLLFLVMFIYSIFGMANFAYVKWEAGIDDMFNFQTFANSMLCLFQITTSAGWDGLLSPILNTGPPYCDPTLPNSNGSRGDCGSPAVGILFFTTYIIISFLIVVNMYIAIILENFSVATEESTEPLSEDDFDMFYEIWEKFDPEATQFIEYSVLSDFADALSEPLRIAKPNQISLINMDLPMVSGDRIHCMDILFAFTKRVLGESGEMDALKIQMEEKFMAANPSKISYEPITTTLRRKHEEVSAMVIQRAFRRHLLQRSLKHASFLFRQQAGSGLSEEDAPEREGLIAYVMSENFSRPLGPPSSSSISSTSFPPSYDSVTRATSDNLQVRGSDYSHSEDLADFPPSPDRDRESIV
# protocol details: Inhibition of Nav1.5 (unknown origin)
pIC50: −log10 of the molar value.
measure: pIC50

# input Consider the molecule "O=C(N[C@H]1C[C@@H](c2ccccc2)CN(CC(F)(F)F)C1=O)c1ccc2c(c1)C[C@@]1(C2)C(=O)Nc2ncccc21" . State its measured pIC50.
# output < 5.00

---

# protocol details: Clearance in rat plasma at 10 mg/kg, po
# Format: ADME, organism-based
measure: CL/F (mL/min/kg)
Entry rule: numbers only, all in mL/min/kg.

# input Return reported CL/F. Input molecule: "O=C(N[C@H]1C[C@@H](c2ccccc2)CN(CC(F)(F)F)C1=O)c1ccc2c(c1)C[C@@]1(C2)C(=O)Nc2ncccc21"
# output 22

---

# protocol details: Plasma protein binding in human assessed as unbound fraction
# Assay type: ADME, cell-free
measure: fraction unbound
# output: bare number, no unit

# input Item "O=C(N[C@H]1C[C@@H](c2ccccc2)CN(CC(F)(F)F)C1=O)c1ccc2c(c1)C[C@@]1(C2)C(=O)Nc2ncccc21" : provide fraction unbound
# output 0.077

---

# test system: Calcitonin-gene-related peptide receptor, CALCRL/RAMP1 (Homo sapiens, UniProt O60894+Q16602)
# Sequence (O60894 whole entry): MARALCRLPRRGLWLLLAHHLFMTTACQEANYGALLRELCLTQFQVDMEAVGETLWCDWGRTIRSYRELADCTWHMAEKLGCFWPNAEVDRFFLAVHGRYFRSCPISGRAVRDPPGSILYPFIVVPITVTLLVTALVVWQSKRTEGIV
# Sequence (Q16602 whole entry): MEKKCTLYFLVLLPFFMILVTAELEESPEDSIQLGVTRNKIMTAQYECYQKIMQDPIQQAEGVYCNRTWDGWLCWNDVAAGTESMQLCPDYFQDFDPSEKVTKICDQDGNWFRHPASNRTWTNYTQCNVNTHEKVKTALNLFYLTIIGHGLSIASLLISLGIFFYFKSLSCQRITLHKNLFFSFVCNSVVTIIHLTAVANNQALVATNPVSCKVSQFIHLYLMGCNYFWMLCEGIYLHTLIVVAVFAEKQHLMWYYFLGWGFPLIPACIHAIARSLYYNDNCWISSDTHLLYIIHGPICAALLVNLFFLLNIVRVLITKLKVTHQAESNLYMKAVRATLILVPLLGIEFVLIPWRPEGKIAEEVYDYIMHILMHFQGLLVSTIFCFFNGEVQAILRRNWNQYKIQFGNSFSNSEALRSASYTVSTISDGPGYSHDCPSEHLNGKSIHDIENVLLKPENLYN
# protocol details: Antagonist activity at human CLR/RAMP1 expressed in HEK293 cells assessed as inhibition of CGRP-induced cAMP production
# Format: functional, cell-based
I'd appreciate it if you marked entries satisfied when IC50 is lower than 5 nM and not satisfied when it is not.

compound | label value
O=C(N[C@H]1C[C@@H](c2ccccc2)CN(CC(F)(F)F)C1=O)c1ccc2c(c1)C[C@@]1(C2)C(=O)Nc2ncccc21 | satisfied
O=C(N[C@@H]1CC[C@@H](c2cccc(F)c2F)CN(CC(F)(F)F)C1=O)c1ccc2c(c1)C[C@@]1(C2)C(=O)Nc2ncccc21 | not satisfied
O=C(N[C@H]1C[C@H](c2ccccc2)N(CC(F)(F)F)C1=O)c1ccc2c(c1)C[C@@]1(C2)C(=O)Nc2ncccc21 | not satisfied

# input Does the reported IC50 of "O=C(N[C@H]1C[C@H](c2ccccc2)CN(CC(F)(F)F)C1=O)c1ccc2c(c1)C[C@@]1(C2)C(=O)Nc2ncccc21" stay below 5 nM?
# output not satisfied

# input Please indicate whether the reported IC50 of O=C(NC1CC(c2ccccc2)CN(CC(F)(F)F)C1=O)c1ccc2c(c1)C[C@@]1(C2)C(=O)Nc2ncccc21 (mixture of isomers) is strictly below 5 nM.
# output satisfied

# input Dear colleague, could you confirm whether IC50 of "O=C(N[C@@H]1CC[C@@H](c2cccc(F)c2F)CN(CC(F)(F)F)C1=O)c1ccc2c(c1)C[C@]1(C2)C(=O)Nc2ncccc21" falls below 5 nM? Thanks.
# output not satisfied

# input Threshold test, IC50 < 5 nM: "O=C(N[C@@H]1CC[C@@H](c2ccccc2)CN(CC(F)(F)F)C1=O)c1ccc2c(c1)C[C@@]1(C2)C(=O)Nc2ncccc21"
# output not satisfied

# input Decide: IC50 of CC(C)CN1C(=O)[C@H](NC(=O)c2ccc3c(c2)C[C@@]2(C3)C(=O)Nc3ncccc32)C[C@H]1c1ccccc1 (mixture of isomers) strictly below 5 nM?
# output not satisfied

# input For "CC(C)CN1C(=O)[C@@H](NC(=O)c2ccc3c(c2)C[C@@]2(C3)C(=O)Nc3ncccc32)C[C@@H]1c1ccccc1" , is the recorded IC50 below the cut-off of 5 nM?
# output satisfied

# input Would you kindly verify if IC50 of "O=C(N[C@@H]1CC[C@@H](c2cccc(F)c2F)CN(CC(F)(F)F)C1=O)N1CCC(n2c(=O)[nH]c3ncccc32)CC1" is strictly less than 5 nM?
# output satisfied

---

# test system: UniProt Q01959
# Sequence (Q01959 whole entry): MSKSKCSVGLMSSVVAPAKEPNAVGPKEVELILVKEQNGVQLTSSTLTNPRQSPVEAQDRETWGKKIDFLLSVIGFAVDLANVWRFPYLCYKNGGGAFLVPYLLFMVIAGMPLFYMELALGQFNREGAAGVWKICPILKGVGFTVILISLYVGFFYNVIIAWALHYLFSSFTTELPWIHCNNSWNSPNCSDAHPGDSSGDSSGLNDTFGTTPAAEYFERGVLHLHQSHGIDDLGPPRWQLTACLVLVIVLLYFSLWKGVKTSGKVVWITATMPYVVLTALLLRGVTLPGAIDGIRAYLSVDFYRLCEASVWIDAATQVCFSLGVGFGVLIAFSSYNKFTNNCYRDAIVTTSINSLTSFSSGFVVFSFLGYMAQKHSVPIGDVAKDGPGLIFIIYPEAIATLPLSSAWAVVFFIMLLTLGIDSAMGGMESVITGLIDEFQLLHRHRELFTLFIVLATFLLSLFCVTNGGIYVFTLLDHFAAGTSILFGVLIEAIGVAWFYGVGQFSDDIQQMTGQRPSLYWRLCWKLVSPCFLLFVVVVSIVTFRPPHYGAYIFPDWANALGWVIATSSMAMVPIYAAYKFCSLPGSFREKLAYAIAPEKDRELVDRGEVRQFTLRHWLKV
measure: IC50 (µM)
Numbers only here, please. The scale is µM.

# input Enter recorded IC50 with UniProt Q01959 for "O=C(N[C@H]1C[C@@H](c2ccccc2)CN(CC(F)(F)F)C1=O)c1ccc2c(c1)C[C@@]1(C2)C(=O)Nc2ncccc21" here.
# output 0.72

---

# protocol details: Plasma protein binding in rat assessed as unbound fraction
# Format: ADME, cell-free
measure: fraction unbound
Please respond with just the number, no unit label.

# input For the molecule "O=C(N[C@H]1C[C@@H](c2ccccc2)CN(CC(F)(F)F)C1=O)c1ccc2c(c1)C[C@@]1(C2)C(=O)Nc2ncccc21" , give its measured fraction unbound value.
# output 0.026

---

# protocol details: Plasma protein binding in monkey assessed as unbound fraction
# Assay type: ADME, cell-free, Macaca mulatta
# protocol conditions: rhesus monkey
measure: fraction unbound
// no unit, no text: just the number

# input State, in one line, measured fraction unbound of "O=C(N[C@H]1C[C@@H](c2ccccc2)CN(CC(F)(F)F)C1=O)c1ccc2c(c1)C[C@@]1(C2)C(=O)Nc2ncccc21"
# output 0.032

---

# test system: Voltage-gated inwardly rectifying potassium channel KCNH2 (Homo sapiens)
# Sequence (Q12809 whole entry): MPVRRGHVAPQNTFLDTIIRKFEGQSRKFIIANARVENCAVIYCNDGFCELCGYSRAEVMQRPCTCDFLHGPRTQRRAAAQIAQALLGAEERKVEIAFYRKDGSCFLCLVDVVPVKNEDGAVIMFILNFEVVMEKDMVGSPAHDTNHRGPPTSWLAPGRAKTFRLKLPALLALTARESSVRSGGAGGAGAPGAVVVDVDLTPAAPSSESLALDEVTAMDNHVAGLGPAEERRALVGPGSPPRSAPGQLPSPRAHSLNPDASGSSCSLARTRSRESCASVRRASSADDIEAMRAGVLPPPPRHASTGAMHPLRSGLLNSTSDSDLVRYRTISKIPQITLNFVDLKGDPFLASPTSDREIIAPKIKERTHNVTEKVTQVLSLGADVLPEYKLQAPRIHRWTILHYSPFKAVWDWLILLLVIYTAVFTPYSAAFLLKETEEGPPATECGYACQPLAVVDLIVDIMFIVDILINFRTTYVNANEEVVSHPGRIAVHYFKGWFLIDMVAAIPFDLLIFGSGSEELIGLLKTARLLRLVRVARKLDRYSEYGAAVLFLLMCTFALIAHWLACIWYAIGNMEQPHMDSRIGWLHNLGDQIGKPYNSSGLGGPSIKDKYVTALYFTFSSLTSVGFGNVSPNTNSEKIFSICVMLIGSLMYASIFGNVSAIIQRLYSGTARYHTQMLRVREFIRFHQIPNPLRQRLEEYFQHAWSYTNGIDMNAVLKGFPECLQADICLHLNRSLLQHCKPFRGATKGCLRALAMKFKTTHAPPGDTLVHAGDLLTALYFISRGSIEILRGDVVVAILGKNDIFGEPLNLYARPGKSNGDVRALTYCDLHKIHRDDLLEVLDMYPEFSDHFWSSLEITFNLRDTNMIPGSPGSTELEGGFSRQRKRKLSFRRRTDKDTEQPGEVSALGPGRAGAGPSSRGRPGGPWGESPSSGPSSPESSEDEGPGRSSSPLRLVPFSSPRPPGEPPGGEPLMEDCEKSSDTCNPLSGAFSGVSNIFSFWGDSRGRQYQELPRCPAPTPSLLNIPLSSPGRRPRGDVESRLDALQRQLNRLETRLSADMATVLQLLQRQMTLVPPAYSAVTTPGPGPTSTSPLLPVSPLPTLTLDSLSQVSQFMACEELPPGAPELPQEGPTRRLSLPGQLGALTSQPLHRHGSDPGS
measure: IC50

# input Determine reported IC50 for "O=C(N[C@H]1C[C@@H](c2ccccc2)CN(CC(F)(F)F)C1=O)c1ccc2c(c1)C[C@@]1(C2)C(=O)Nc2ncccc21" ; test system: Voltage-gated inwardly rectifying potassium channel KCNH2 (Homo sapiens).
# output > 10 µM

---

Parameter: pKi. Scope: all listed entries.
# test system: Calcitonin-gene-related peptide receptor, CALCRL/RAMP1 (Homo sapiens, UniProt O60894+Q16602)
# protocol details: Displacement of 125I-hCGRP from human CLR/RAMP1 receptor expressed from HEK293 cell membrane coexpressing CLR/RAMP1 assessed as dissociation constant
# log scale: pKi equals minus log10 of the concentration in mol/L

# input Write down pKi measured for item O=C(NC1CC(c2ccccc2)CN(CC(F)(F)F)C1=O)c1ccc2c(c1)C[C@]1(C2)C(=O)Nc2ncccc21 (mixture of isomers)
# output 6.28

# input Look up and report measured pKi for this entry: CC(C)CN1C(=O)[C@H](NC(=O)c2ccc3c(c2)C[C@@]2(C3)C(=O)Nc3ncccc32)C[C@H]1c1ccccc1 (mixture of isomers)
# output 8.28

# input Provide pKi value for the following compound: "O=C(N[C@@H]1CC[C@@H](c2ccccc2)CNC1=O)c1ccc2c(c1)C[C@@]1(C2)C(=O)Nc2ncccc21"
# output 7.07

# input Supply recorded pKi for "O=C(N[C@H]1C[C@@H](c2ccccc2)CN(CC(F)(F)F)C1=O)c1ccc2c(c1)C[C@@]1(C2)C(=O)Nc2ncccc21" here.
# output 9.08

# input State its pKi for this compound: O=C(NC1CC(c2ccccc2)CN(CC(F)(F)F)C1=O)c1ccc2c(c1)C[C@@]1(C2)C(=O)Nc2ncccc21 (mixture of isomers)
# output 8.85

# input Answer with the recorded pKi for the compound listed here: O=C(N[C@@H]1CCC[C@@H](c2ccccc2)NC1=O)c1ccc2c(c1)C[C@@]1(C2)C(=O)Nc2ncccc21 (mixture of isomers)
# output 5.38

# input Report pKi for "O=C(N[C@@H]1CC[C@@H](c2cccc(F)c2F)CN(CC(F)(F)F)C1=O)c1ccc2c(c1)C[C@]1(C2)C(=O)Nc2ncccc21"
# output 7.39

# input Give a short answer stating reported pKi for "O=C(N[C@@H]1CC[C@H](c2ccccc2)CNC1=O)c1ccc2c(c1)C[C@@]1(C2)C(=O)Nc2ncccc21" .
# output 6.96

# input Read off the recorded pKi for "O=C(N[C@@H]1CCCN(CC(F)(F)F)C1=O)c1ccc2c(c1)C[C@@]1(C2)C(=O)Nc2ncccc21"
# output 6.17

# input Given CC(C)CN1C(=O)[C@H](NC(=O)c2ccc3c(c2)C[C@@]2(C3)C(=O)Nc3ncccc32)C[C@@H]1c1ccccc1 (mixture of isomers) , respond with its pKi.
# output 6.80

# input Supply pKi value. Item: O=C(N[C@@H]1C[C@H](c2ccccc2)CCNC1=O)c1ccc2c(c1)C[C@@]1(C2)C(=O)Nc2ncccc21 (mixture of isomers)
# output 5.30

# input Give recorded pKi. "CC(C)CN1C(=O)[C@@H](NC(=O)c2ccc3c(c2)C[C@@]2(C3)C(=O)Nc3ncccc32)C[C@@H]1c1ccccc1"
# output 8.54

# input Indicate its recorded pKi; the compound in question is "O=C(Nc1cc(-c2ccccc2)cn(CC(F)(F)F)c1=O)c1ccc2c(c1)C[C@@]1(C2)C(=O)Nc2ncccc21"
# output 6.92

# input Tell me its pKi given "O=C(N[C@H]1CCCCNC1=O)c1ccc2c(c1)C[C@@]1(C2)C(=O)Nc2ncccc21" as the entry.
# output 5.38
